meta.source: PubChem BioAssay

Target: NADPH oxidase 2 (Homo sapiens)
Test: NOX2-dependent H2O2 signal modulators, primary screen, NOX inhibitor project, cell-based, HEK293-NOX2, PMA-stimulated, Amplex Red fluorescence (AID 1159); note: test concentration not given here
Conditions: 45 min, higher = more signal, called active from +8 up or from −8 down
Binary call on z-score: true from -0.2 upward, false beneath that.

Completed entries (count: 5):
molecule	group
COC(=O)C1=CC(c2ccc(CO)cc2)=CC(c2cccs2)N(Cc2cccc(OC(F)(F)F)c2)C=C1C(=O)OC (stereo not given)	false
CC(C)[C@H]1NC(=O)[C@@]23C(=O)N[C@@H](Cc4ccccc4)C2[C@H](C)[C@@]2(C)O[C@H]2C3/C=C/C/C=C\CNC(=O)[C@H](C)NC1=O (stereo not given in full)	true
CCN1C(C)=C(C(=O)OC)[C@@H](c2ccccc2)N2C(=O)[C@](O)(C(=O)OC)[C@@H](c3ccccc3)C(C(C)=O)=C12	false
CO[C@H]1COC(=O)[C@@H](C)NC(=O)CC=C[C@@H](C)[C@H](OC)COC(=O)CC=C[C@@H]1C	true
C=CC[C@]1(C(N)=O)N=C(c2ccc(OCCCO)cc2)O[C@H]1c1ccccc1CN=[N+]=[N-]	false

Quick check: does N#Cc1ccc(NN2C(C(O)c3ccc(I)cc3)C=CC3C(=O)N(c4ccccc4)C(=O)C32)cc1 (stereo not given) have z-score greater than or equal to -0.2?
false

Quick check: does `CCC(=O)[C@]12O[C@@]3([C@@H]4C(=O)OCC[C@@H]41)N(Cc1ccccc1)C(C)=C(C(=O)OC)[C@@H](c1ccccc1)N3C2=O` have z-score greater than or equal to -0.2?
true

Quick check: does `Cc1ccc(S[C@]2(C(=O)NC3CC3)CC(=O)N(Cc3cc(C(F)(F)F)cc(C(F)(F)F)c3)[C@@H]2c2ccc(CO)cc2)cc1` have z-score greater than or equal to -0.2?
true

Quick check: does `CN(C)CCCC[C@@H]1NC(=O)[C@@H]2C[C@H](C(=O)O)[C@H](c3ccc(O)cc3)N2C1=O` have z-score greater than or equal to -0.2?
false

Quick check: does `C=CC[C@]1(C(=O)O)N=C(c2ccc(OCCCO)cc2)O[C@H]1c1ccccc1N=[N+]=[N-]` have z-score greater than or equal to -0.2?
false

Quick check: does `CO[C@H]1COC(=O)[C@H](C)NC(=O)CC=C[C@@H](C)[C@H](NS(=O)(=O)c2ccc(C)cc2)COC(=O)[C@@H](OCc2ccccc2)C=C[C@@H]1C` have z-score greater than or equal to -0.2?
true

Quick check: does `O=C1O[C@@H](c2ccccc2)[C@@H](c2ccccc2)N2[C@@H](c3ccc(OCCO)cc3)[C@]3(C(=O)Nc4ccc(C#CCCO)cc43)[C@@H](C(=O)N3CCN(c4ncccn4)CC3)[C@H]12` have z-score greater than or equal to -0.2?
true

Quick check: does `CC(C)NC(=O)[C@@]1(Cc2ccccc2I)c2ccccc2C(=O)N(C2CCCCC2)[C@H]1c1ccc(CO)cc1` have z-score greater than or equal to -0.2?
true

Quick check: does `C/C(=N\O)C(=O)NCCCCCNC(=O)OCc1ccccc1` have z-score greater than or equal to -0.2?
false

Quick check: does `COC(=O)[C@@]1(Cc2ccccc2N=[N+]=[N-])N=C(c2ccc(OCCCO)cc2)O[C@H]1c1ccccc1CN=[N+]=[N-]` have z-score greater than or equal to -0.2?
false
